Molecular target: T1, human CD71 extracellular domain (human, UniProt P02786 89-760)
T1 construct: also called hCD71; human CD71-ECD
T1 sequence (P02786 89-760): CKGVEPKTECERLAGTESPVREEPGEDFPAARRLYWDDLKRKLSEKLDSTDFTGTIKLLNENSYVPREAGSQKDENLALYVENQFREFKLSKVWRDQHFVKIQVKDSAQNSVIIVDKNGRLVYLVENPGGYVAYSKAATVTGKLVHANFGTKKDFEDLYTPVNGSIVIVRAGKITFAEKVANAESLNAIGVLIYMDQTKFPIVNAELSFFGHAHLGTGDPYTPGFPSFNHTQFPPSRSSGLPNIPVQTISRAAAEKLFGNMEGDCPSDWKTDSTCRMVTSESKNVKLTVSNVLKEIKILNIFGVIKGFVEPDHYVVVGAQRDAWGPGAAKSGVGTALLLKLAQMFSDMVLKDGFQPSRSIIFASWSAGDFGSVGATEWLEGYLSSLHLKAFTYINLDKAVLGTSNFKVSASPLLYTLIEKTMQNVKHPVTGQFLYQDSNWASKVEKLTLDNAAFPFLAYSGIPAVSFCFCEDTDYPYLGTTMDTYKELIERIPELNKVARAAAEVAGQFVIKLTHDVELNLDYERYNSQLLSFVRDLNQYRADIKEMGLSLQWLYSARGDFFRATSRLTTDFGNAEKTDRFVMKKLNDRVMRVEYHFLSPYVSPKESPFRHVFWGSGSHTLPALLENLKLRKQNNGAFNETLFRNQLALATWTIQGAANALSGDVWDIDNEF
Experiment: primary ELISA, signal ratio to HSA
API: label(entry) gives Yes if the entry's hCD71:HSA is strictly smaller than 80; on equality or larger values it gives No.

Task: Dear colleague, could you confirm whether hCD71:HSA of CD71-binding FN3 domain of SEQ ID NO: 218 (designed binder) MSLPAPKNLVVSRVTEDSARLSWTAPDAAFDSFEIAYHEDDFYGEAIALLVPGSERSYDLTGLKPGTEYIVHIGGVKGGFFSSPLYAWFTT falls below 80? Thanks.
Result: Yes

Task: Input CD71-binding FN3 domain of SEQ ID NO: 176 (designed binder) MSLPAPKNLVVSRVTEDSARLSWTAPDAAFDSFFIGYLEPQPPGEAIHLFVPGSERSYDLTGLKPGTEYWVQIGGVKGGNWSAPLSAIFTT ; condition: hCD71:HSA strictly below 80. Does it hold?
Result: No

Task: Please check: hCD71:HSA for CD71-binding FN3 domain of SEQ ID NO: 179 (designed binder) MSLPAPKNLVVSRVTEDSARLSWTAPDAAFDSFFIGYLEPQPPGEAITLLVPGSERSYDLTGLKPGTEYNVTIQGVKGGFPSHPLVATTTT , strictly under 80 or not?
Result: Yes

Task: Find out if reported hCD71:HSA for CD71-binding FN3 domain of SEQ ID NO: 152 (designed binder) MSLPAPKNLVVSRVTEDSARLSWTAPDAAFDSFDIGYFEATYYGEAIVLTVPGSERSYDLTGLKPGTEYWVQIGGVKGGNWSAPLSAIFTT is less than 80
Result: No

Task: Does this binder meet the criterion hCD71:HSA < 80? CD71-binding FN3 domain of SEQ ID NO: 129 (designed binder) MGGSLPAPKNLVVSRVTEDSARLSWTAPDAAFDSFEIGYFENLYLGEAIVLTVPGSERSYDLTGLKPGTEYWVQIGGVKGGNWSAPLSAIFTT
Result: No
